Provenance of the data: ChEMBL document CHEMBL1921795

Test: Half life in rhesus monkey at 1 mg/kg, iv by LC/MS analysis
Format: ADME, organism-based, Macaca mulatta
Design: dose 1 mg/kg, route intravenous
Settings: in vivo
Property Label: half-life

For the compound shown here, Cl.O=C(Nc1ccc(N2C(=O)CC(c3ccccc3)C2=O)c(Cl)c1)c1ccccn1 (stereo unspecified) , give the reported half-life.
> 3 h

* * *

Biological target: Cytochrome P450 2C19 (Homo sapiens, UniProt P33261)
Sequence (P33261 whole entry): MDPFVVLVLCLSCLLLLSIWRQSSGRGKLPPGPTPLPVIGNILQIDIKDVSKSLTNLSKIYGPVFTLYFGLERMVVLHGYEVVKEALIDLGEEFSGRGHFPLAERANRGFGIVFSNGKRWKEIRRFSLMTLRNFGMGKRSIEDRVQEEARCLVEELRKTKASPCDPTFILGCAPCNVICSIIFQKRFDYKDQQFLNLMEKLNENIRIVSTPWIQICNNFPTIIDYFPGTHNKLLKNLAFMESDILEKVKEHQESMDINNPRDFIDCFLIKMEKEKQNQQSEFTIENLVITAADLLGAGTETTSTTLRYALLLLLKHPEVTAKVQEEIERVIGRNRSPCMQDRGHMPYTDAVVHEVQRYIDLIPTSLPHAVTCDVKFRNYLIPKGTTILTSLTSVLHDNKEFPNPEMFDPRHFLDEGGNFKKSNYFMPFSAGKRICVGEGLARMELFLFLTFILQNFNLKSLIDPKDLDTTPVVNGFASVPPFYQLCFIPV
Property Label: IC50 (µM)
Answers are plain numbers, in µM.

Look up IC50: O=C(Nc1ccc(N2C(=O)CC(c3ccccc3)C2=O)c(Cl)c1)c1ccccn1 (racemic)
17.6

* * *

Molecular target: Metabotropic glutamate receptor 4 (Homo sapiens, UniProt Q14833)
Sequence (Q14833 whole entry): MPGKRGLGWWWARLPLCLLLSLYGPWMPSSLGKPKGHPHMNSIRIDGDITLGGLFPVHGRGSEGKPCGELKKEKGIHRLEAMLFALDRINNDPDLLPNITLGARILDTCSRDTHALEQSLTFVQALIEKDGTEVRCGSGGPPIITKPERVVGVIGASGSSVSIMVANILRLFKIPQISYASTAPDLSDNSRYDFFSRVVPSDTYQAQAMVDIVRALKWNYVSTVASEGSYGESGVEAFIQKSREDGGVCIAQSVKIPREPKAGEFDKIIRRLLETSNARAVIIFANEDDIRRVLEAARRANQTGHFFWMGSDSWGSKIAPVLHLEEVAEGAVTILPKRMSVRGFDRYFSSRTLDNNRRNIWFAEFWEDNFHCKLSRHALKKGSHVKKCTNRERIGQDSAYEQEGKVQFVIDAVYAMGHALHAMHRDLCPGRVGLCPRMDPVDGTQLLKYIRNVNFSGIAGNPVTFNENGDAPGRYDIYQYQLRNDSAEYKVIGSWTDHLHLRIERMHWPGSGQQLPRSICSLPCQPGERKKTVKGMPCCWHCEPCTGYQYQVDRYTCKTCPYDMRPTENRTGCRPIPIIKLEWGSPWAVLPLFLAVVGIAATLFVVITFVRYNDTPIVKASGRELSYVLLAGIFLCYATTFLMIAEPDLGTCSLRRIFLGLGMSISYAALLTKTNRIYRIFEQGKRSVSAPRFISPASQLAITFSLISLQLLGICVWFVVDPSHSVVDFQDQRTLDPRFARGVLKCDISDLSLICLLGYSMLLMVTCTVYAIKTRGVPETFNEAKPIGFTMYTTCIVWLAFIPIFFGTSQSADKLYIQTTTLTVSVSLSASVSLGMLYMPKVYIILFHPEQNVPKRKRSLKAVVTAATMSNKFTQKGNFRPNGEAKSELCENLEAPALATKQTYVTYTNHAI
Experiment: Positive allosteric modulation of human mGlu4 receptor expressed in CHO cells coexpressing Gqi5 assessed as potentiation of glutamate-induced calcium mobilization relative to (-)-PHCCC
Assay type: functional, cell-based
// label = rule met if Activity is not less than 60%, otherwise rule not met

// below: answered molecules
O=C(Nc1ccc(N2S(=O)(=O)c3ccccc3S2(=O)=O)cc1)C1CCCCC1    rule not met
O=C(Nc1ccc(N2S(=O)(=O)c3ccccc3S2(=O)=O)cc1)c1cscn1    rule met
O=S1(=O)c2ccccc2S(=O)(=O)N1c1ccc(NC2(c3ccccn3)CC2)cc1    rule met
COc1cccc(C(=O)Nc2ccc(N3S(=O)(=O)c4ccccc4S3(=O)=O)cc2)n1    rule not met

Turning now to a further record.
# bool: Activity of O=C(Nc1ccc(N2S(=O)(=O)c3ccccc3S2(=O)=O)cc1)c1cccc(F)n1 >= 60%
rule met

* * *

Target: Metabotropic glutamate receptor 4 (Rattus norvegicus) (UniProt P31423)
Sequence (P31423 whole entry): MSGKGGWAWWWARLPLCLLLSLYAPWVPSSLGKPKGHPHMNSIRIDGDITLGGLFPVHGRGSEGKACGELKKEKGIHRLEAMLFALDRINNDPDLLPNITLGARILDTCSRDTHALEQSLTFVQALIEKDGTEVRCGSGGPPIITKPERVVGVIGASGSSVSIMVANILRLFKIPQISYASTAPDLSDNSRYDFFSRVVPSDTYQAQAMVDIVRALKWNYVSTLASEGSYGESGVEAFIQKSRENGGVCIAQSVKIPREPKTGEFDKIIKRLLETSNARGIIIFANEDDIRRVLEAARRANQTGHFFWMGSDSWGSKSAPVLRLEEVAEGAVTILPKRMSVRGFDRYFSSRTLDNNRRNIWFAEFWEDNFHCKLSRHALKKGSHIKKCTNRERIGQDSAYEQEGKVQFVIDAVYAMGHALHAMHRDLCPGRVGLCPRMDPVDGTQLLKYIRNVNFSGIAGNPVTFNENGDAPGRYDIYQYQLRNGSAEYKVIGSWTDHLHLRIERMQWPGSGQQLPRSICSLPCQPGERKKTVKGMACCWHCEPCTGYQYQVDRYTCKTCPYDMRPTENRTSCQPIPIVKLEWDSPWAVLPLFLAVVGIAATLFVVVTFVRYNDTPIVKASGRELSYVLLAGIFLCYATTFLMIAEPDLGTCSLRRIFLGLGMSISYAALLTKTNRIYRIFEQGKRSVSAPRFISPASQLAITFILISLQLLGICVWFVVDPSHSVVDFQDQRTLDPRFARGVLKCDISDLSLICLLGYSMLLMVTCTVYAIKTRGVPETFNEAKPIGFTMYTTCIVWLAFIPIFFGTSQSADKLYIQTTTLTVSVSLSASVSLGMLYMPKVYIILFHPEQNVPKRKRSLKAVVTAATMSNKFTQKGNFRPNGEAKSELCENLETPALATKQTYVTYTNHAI
Experiment: Positive allosteric modulator activity at rat mGlu4 receptor by thallium flux assay at 30 uM relative to glutamate
So basically every entry gets a class from its fold change (FC), ranges being low range = under 5, mid range = from 5 up to 10, high range = 10 and over

CC1(c2ccccc2)CC(=O)N(c2ccc(NC(=O)c3ccccn3)cc2Cl)C1=O (racemic)    high range
O=C(Nc1ccc(N2C(=O)c3ccccc3C2=O)c(Cl)c1)c1ccccn1    high range
O=C(Nc1ccc(N2S(=O)(=O)c3ccccc3S2(=O)=O)cc1)c1nccs1    low range
O=C(Nc1ccc(N2C(=O)c3cccc(Cl)c3C2=O)c(Cl)c1)c1ccccn1    high range
O=C(Nc1ccc(N2C(=O)CC(c3ccccc3)C2=O)c(Cl)c1)c1ccccn1 (racemic)    high range
O=C(Nc1ccc(N2S(=O)(=O)c3ccccc3S2(=O)=O)cc1)c1ccccn1    mid range
O=C(Nc1ccc(N2C(=O)[C@@H]3[C@H](C2=O)[C@H]2C=C[C@@H]3CC2)c(Cl)c1)c1ccccn1    mid range
O=C(Nc1ccc(N2C(=O)[C@H]3CCCC[C@H]3C2=O)c(Cl)c1)c1ccccn1    mid range
CC1(C)[C@@H]2C(=O)N(c3ccc(NC(=O)c4ccccn4)cc3Cl)C(=O)[C@@H]21    mid range
O=C(Nc1ccc(N2S(=O)(=O)c3ccccc3S2(=O)=O)cc1)c1cscn1    mid range

Now turn to the next compound.
Could you tell me which band O=C(Nc1ccc(N2S(=O)(=O)c3ccccc3S2(=O)=O)cc1)c1ccncn1 belongs to?
low range

* * *

Assay: Ratio of AUC in brain to plasma in Sprague-Dawley rat
Property Label: Kp
Numbers only.

Quick check: Kp of Cl.O=C(Nc1ccc(N2C(=O)[C@@H]3[C@H](C2=O)[C@@H]2C=C[C@H]3C2)c(Cl)c1)c1ccccn1 ?
0.93

* * *

Assay: Half life in iv dosed Beagle dog
Type: ADME, organism-based, Canis lupus familiaris
Conditions: in vivo
Property Label: half-life

Which half-life value belongs to Cl.O=C(Nc1ccc(N2C(=O)CC(c3ccccc3)C2=O)c(Cl)c1)c1ccccn1 (stereo unspecified) ?
> 3 h

* * *

Assay: AUC (0 to 6 hrs) in Sprague-Dawley rat hepatic portal vein plasma at 10 mg/kg, po
Assay type: ADME, organism-based
Set-up: time < 6 hr, dose 10 mg/kg, route oral
Property Label: AUC(0-t) at 6 h (nM·h)
Numbers only, in nM·h.

Report AUC(0-t) at 6 h for Cl.O=C(Nc1ccc(N2C(=O)[C@@H]3[C@H](C2=O)[C@@H]2C=C[C@H]3C2)c(Cl)c1)c1ccccn1 please.
8.48

* * *

Target: Metabotropic glutamate receptor 4 (Rattus norvegicus, UniProt P31423)
Sequence (P31423 whole entry): as the sequence (P31423 whole entry) above
Experiment: Positive allosteric modulator activity at rat mGlu4 receptor by thallium flux assay
pEC50: −log10 of the molar value.
met means recorded pEC50 is 7 or above; not met means it is below 7.

As a guide, the following entries are already answered.
O=C(Nc1ccc(N2S(=O)(=O)c3ccccc3S2(=O)=O)cc1)c1nccs1    not met
O=C(Nc1ccc(N2S(=O)(=O)c3ccccc3S2(=O)=O)cc1)c1ccncn1    not met
O=C(Nc1ccc(N2S(=O)(=O)c3ccccc3S2(=O)=O)cc1)c1ccccn1    not met
O=C(Nc1ccc(N2C(=O)c3cccc(Cl)c3C2=O)c(Cl)c1)c1ccccn1    met

Check if pEC50 >= 7 (inclusive). Item: O=C(Nc1ccc(N2C(=O)[C@H]3CCCC[C@H]3C2=O)c(Cl)c1)c1ccccn1
not met

* * *

Biological target: Metabotropic glutamate receptor 4 (Homo sapiens, UniProt Q14833)
Test: Positive allosteric modulator activity at human mGlu4 receptor expressed in CHO cells expressing Gqi5 by calcium mobilization assay
Property Label: log10 EC50 (log10 of the value in nM)
On a log10 scale: recorded EC50, unit nM.

Please report log10 EC50 for every entry that follows.
1. O=C(Nc1ccc(N2S(=O)(=O)c3ccccc3S2(=O)=O)cc1)c1cscn1
2. O=C(Nc1ccc(N2C(=O)CCC2=O)c(Cl)c1)c1ccccn1
3. O=S1(=O)c2ccccc2S(=O)(=O)N1c1ccc(NC2(c3ccccn3)CC2)cc1
4. O=C(Nc1ccc(N2C(=O)[C@@H]3[C@H](C2=O)[C@@H]2CC[C@H]3O2)c(Cl)c1)c1ccccn1
5. O=C(Nc1ccc(N2S(=O)(=O)c3ccccc3S2(=O)=O)cc1)c1ccco1
6. O=C(Nc1ccc(N2S(=O)(=O)c3ccccc3S2(=O)=O)cc1)c1ccccc1
7. O=C(Nc1ccc(N2S(=O)(=O)c3ccccc3S2(=O)=O)cc1)c1nccs1

[2.02, 3.79, 3.81, 3.11, 2.35, 2.60, 2.55]

Batch request: log10 EC50 per item, same order as input.
1. O=C(Nc1ccc(N2S(=O)(=O)c3ccccc3S2(=O)=O)cc1)C1CCCCC1
2. O=C(Nc1ccc(N2S(=O)(=O)c3ccccc3S2(=O)=O)cc1F)c1ccccn1
3. O=S1(=O)c2ccccc2S(=O)(=O)N1c1ccc(NCc2ccccn2)cc1
4. CC1(C)CC(=O)N(c2ccc(NC(=O)c3ccccn3)cc2Cl)C1=O
5. O=C(Nc1ccc(N2S(=O)(=O)c3ccccc3S2(=O)=O)cc1)c1cccc(F)n1
6. O=C(Nc1ccc(N2S(=O)(=O)c3ccccc3S2(=O)=O)cc1)c1ccccn1
7. O=C(Nc1ccc(N2S(=O)(=O)c3ccccc3S2(=O)=O)cc1)c1ccncn1

1. 2.88
2. 3.04
3. 3.26
4. 3.15
5. 3.26
6. 2.13
7. 2.25

* * *

Molecular target: Metabotropic glutamate receptor 4 (Rattus norvegicus) (UniProt P31423)
Assay: Positive allosteric modulation of rat mGlu4 receptor assessed as potentiation of glutamate-induced thallium flux relative to (-)-PHCCC
Parameters: concentration or dose not given beside the values
What Activity was measured for each of the following?
Give bare numbers, in %.

# annotated cases, reported Activity shown
O=C(Nc1ccc(N2C(=O)CC3(CCCCC3)C2=O)c(Cl)c1)c1ccccn1    114
CC1(C)[C@@H]2C(=O)N(c3ccc(NC(=O)c4ccccn4)cc3Cl)C(=O)[C@@H]21    105
O=C(Nc1ccc(N2C(=O)CC(c3ccccc3)C2=O)c(Cl)c1)c1ccccn1 (racemic)    138
O=C(Nc1ccc(N2C(=O)c3cccc(Cl)c3C2=O)c(Cl)c1)c1ccccn1    137
O=C(Nc1ccc(N2C(=O)[C@H]3CCCC[C@H]3C2=O)c(Cl)c1)c1ccccn1    129
O=C(Nc1ccc(N2C(=O)[C@@H]3[C@H](C2=O)[C@@H]2C=C[C@H]3C2)c(Cl)c1)c1ccccn1 (mixture of isomers)    120
O=C(Nc1ccc(N2S(=O)(=O)c3ccccc3S2(=O)=O)cc1)c1ccccn1    124
O=C(Nc1ccc(N2S(=O)(=O)c3ccccc3S2(=O)=O)cc1)c1cscn1    115

Value lookup for Activity; key = O=C(Nc1ccc(N2S(=O)(=O)c3ccccc3S2(=O)=O)cc1)c1ccncn1
103
